We begin with a simple list: items and their reported apparent KD of MS2 coat protein.
Tested on: MS2 coat protein
ASSAY_NOTES: apparent KD of MS2 coat protein, switch OFF state (with FMN for OFF switches, without FMN for ON switches); designed switch direction (-1 OFF switch, 1 ON switch): -1; higher = weaker reporter binding
EXPERIMENTAL_SETUP: FMN input: 0 or 200 uM; Eterna round: R93 (includes R88 designs)
# value in nM; strip the unit string

[[record]]
chain = "AAGAAGACAGGAUAUACAUGAGGAUCACCCAUGUAAAAGAAAGAGGGAAAAGAGAAAAGUAGAAGGGUCAAGAA [Ptolemy III Euergetes I]"
target_desc = "MS2 coat protein"
reading = 20.5

[[record]]
chain = "AUGUACCUAGGAUAUACAUGAGGAUCACCCAUGUAUUGGGAGCAAUCAAGUUAAUAUUGUAGAAGGAGGUGAAA [JR_Exc003_Sub316]"
target_desc = "MS2 coat protein"
reading = 67.9


Entry CUCAAGUUAGGAUAUGUAAGAAAAGAAGAGAAAGAAAAGAAACAGAAGGAACAUGAGGAUCACCCAUGUAAGAA [EteRNA is fun!] ; apparent KD of MS2 coat protein = 24.1

Briefly, apparent KD of MS2 coat protein measured for AGCUAGUCAGGAUAUGCAUGAAUGUCAAAAGACGUAAAGGGACAUGAGGAUCACCCAUGUAGAAGGGACUAGCA [JL In the Red 4?] : 277

Looking up AAGAAGACAGGAUAUACUAAAGAAAUGAAAAGAAAGAAAGAACAUGAGGAUCACCCAUGUAGAAGGGUCAAGAA [Sewahenre Senebmiu] , I found its apparent KD of MS2 coat protein recorded as 45.1

apparent KD of MS2 coat protein measured on ACGAACCUAGGAUAUACAUGAGGAUCACCCAUGUACAACUAUCCAUGAAUGACACUCGGUAGAAGGAGGAUCAA [Rileenen] = 22.9

Record AAAGUACAUGAGGAUCACCCAUGUCAGGAUAUCGUGGCGGGAAAAACCGGGAAACGCACGAGAAGGGACAAAAA [EX1 Malc#18 Mod 13 - Jieux - Exclusion 1] . Reported apparent KD of MS2 coat protein: 42

Item: GGUUGGCGAGGAUAUACAUGAGGAUCACCCAUGUGAGAGAAAAAAGUGUGAAAGAAAAGUAGAAGGCGCUGACG [salish99-ex3-54] | apparent KD of MS2 coat protein: 13

====

System: MS2 coat protein
ASSAY_NOTES: apparent KD of MS2 coat protein; designed switch direction (-1 OFF switch, 1 ON switch): 1; higher = weaker reporter binding
EXPERIMENTAL_SETUP: input ligand: FMN 200 uM
Please note: 1 applies when apparent KD of MS2 coat protein is 20 nM or greater, and -1 applies otherwise.

[[record]]
chain = "GCAAUGGCGGUAGGAUAUCUAGGAUAUGGGAAAGACUAAGUCUGUAGGUCACCUAACCCAGAAGGAGAGAAGGACCCUGUAAGG [pwkr ssNG2 2FMN + F9.24] (Eterna round: R96, puzzle: Same State NG 2)"
target_desc = "MS2 coat protein"
class_label = 1


Ask: # check: apparent KD of MS2 coat protein of GAGCCAGUCCGAGGAUAUUCAUAAAUUAAAUACAUGAGGAUCACCCAUGUAGGCAGAGAGCCUUGGGAGAAGGCGGACUGGCUC [Xeonanisa>>3] (Eterna round: R96, puzzle: Same State NG 2) is greater than or equal to 20 nM
Result: -1

Ask: Exam item: decide whether the reported apparent KD of MS2 coat protein for GUGGUCAGACAUGAGGAUCACCCAUGUGGAAUAAAUAACGGUGAGGAUAUUGAAUAUAGGAUAUACGAGAAGGCAUGAUUGGUG (Eterna round: R96, puzzle: Same State NG 3) is at least 20 nM.
Result: 1

Ask: Can GCCAUCCAGUGAGGAUAUGGCACCGUUUCGGUGCCAGAAGGCAUGUCAAUUGACAUGAGGAUCACCCAUGUAUUAUGGAUGGCA [JL Fiskers NG1ss - 33 mod 1] (Eterna round: R96, puzzle: Same State NG 1) be said to have apparent KD of MS2 coat protein at or above 20 nM?
Result: 1

Ask: Textbook exercise: given the entry GGAGCCGGCCUAGGAUAUUUCAUAGAAAAACAUGAGGAUCACCCAUGUAGGCCAGAAGGCCUUGGGAAGAAGGAGGUCGGCUCC [Loop Effect - G25] (Eterna round: R96, puzzle: Same State NG 2) , state whether its apparent KD of MS2 coat protein is greater than or equal to 20 nM.
Result: -1

Ask: Quick check, apparent KD of MS2 coat protein >= 20 nM? CAUCGUUUGAUAGGAUAUCGCUAUACAUGAGGAUCACCCAUGUUUACCACGCUGGUUUUUCAUACCGAGAAGGAUUCUGAUGAC [salish99_SSNG02_r04_014] (Eterna round: R96, puzzle: Same State NG 2)
Result: 1

====

Parameter apparent KD of MS2 coat protein: see the listing below.
System: MS2 coat protein
ASSAY_NOTES: apparent KD of MS2 coat protein, switch ON state; designed switch direction (-1 OFF switch, 1 ON switch): -1; higher = weaker reporter binding
EXPERIMENTAL_SETUP: FMN input: 0 or 200 uM; Eterna round: R93 (includes R88 designs)
Answer with the value and then the unit.

Would you please look over these solved cases?
[[record]]
chain = "AGCUGGUUAGGAUAUACAUGAGGAUCACCCAUGUUAAAAAAAAAAAAAAGAUUAAAGUGUAGAAGGGAUUAGUA [Banishment 9 - Jieux - Exclusion 3]"
measured_metric = "apparent KD of MS2 coat protein"
reading = "29.3 nM"

[[record]]
chain = "AAAAAGGUAGGAUAUACAUGAGGAUCACCCAUGUGAAAGAAAAAUAAGAAAAGAAAGAGUAGAAGGACCAAAAA [JL JSci Mod]"
measured_metric = "apparent KD of MS2 coat protein"
reading = "31 nM"

[[record]]
chain = "CCUAUGUCAGGAUAUCAGUAGUAAAAAAAAAAAAUUACUACUGAGAAGGGACAUGAGGAUCACCCAUGUACCUU [EX4 310: Super Stable 10]"
measured_metric = "apparent KD of MS2 coat protein"
reading = "25.5 nM"

[[record]]
chain = "AAGUUAUUAGGAUAUACUUGUGCGAUCCAUACGUUGAUAUUACAUGAGGAUCACCCAUGUAGAAGGAAUAAAAA [JR_Exc002_Sub414]"
measured_metric = "apparent KD of MS2 coat protein"
reading = "48.2 nM"

[[record]]
chain = "AAAGUACAUGAGGAUCACCCAUGUCAGGAUAUCGUGGCGGGAAAAACCGGGAAACGCACGAGAAGGGACAAAAA [EX1 Malc#18 Mod 13 - Jieux - Exclusion 1]"
measured_metric = "apparent KD of MS2 coat protein"
reading = "36.2 nM"

[[record]]
chain = "AACUGACAUGAGGAUCACCCAUGUCAGGAUAUGACUUCGAAAAAUAAAAUAAACGAUGUCAGAAGGGACAUGGA [Design 67: Sub-opt NB]"
measured_metric = "apparent KD of MS2 coat protein"
reading = "21.5 nM"

[[record]]
chain = "AGGAACCUAGGAUAUACAUGAGGAUCACCCAUGUCACGAGUCAAACACAGGUAUCCUAGUAGAAGGAGGAACAC [Inlaveor]"
measured_metric = "apparent KD of MS2 coat protein"
reading = "22 nM"

[[record]]
chain = "AAAAAGGCAGGAUAUACGAGUCAAAGAAAAGACAAAAAGGGACAUGAGGAUCACCCAUGUAGAAGGGCCAAAAA [Fiskers exclusion D2 62% 4]"
measured_metric = "apparent KD of MS2 coat protein"
reading = "51.6 nM"


The value of apparent KD of MS2 coat protein measured for the sequence AGUCUGAGAGGAUAUACAUAGGAAAAAAAAGUAAGAUCCCUACAUGAGGAUCACCCAUGUAGAAGGCUCUGACA [Ex2 Design 142: Sub-opt 6] turned out to be 46.9 nM

Looking up AGGGAACAUGAGGAUCACCCAUGUGAGGAUAUAGAAAAGAAAAGAAAAGAAAGAAGAACUAGAAGGUACAAGAA [Merenre Nemtyemsaf I] , I see its apparent KD of MS2 coat protein listed as 26.1 nM

Item: AAAAAACAUGAGGAUCACCCAUGUGAGGAUAUCCUAAAAAAAAAAAAAAAAAAAAAAAGGAGAAGGCACAUAAA [EXCLS-II] | apparent KD of MS2 coat protein: 47.6 nM

Consider CAUUCACAUGAGGAUCACCCAUGUAAGGAUAUCGAAAUAUAACUAAUCAAUAAACAAACGAGAAGGUACAAAAA [Exclusion 1 design 10] . Its measured apparent KD of MS2 coat protein is 33.7 nM

Note to self: apparent KD of MS2 coat protein recorded for AAAUAGUUAGGAUAUACAUGAGGAUCACCCAUGUGGACUUAUGGAGAAUAGUUUAAUGGUAGAAGGGACUAAAA [EX2 Malc#25] was 52.8 nM
